# measurement.protocol: qHTS Screen of the MIPE 4.0 Collection Against Ewings Sarcoma (TC32) (AID 1259256); further: nearly all actives have a fitted effect of over 45% in size
# assay.setup: TC32 Ewing sarcoma viability, CellTiter-Glo, 48 h; series mostly up to 45.8 µM
Records with an inconclusive call do not appear. Activity calls are given as the source filed them. The call rests on the fitted dose curve; in most records, active means well fitted inhibition curve with a large enough effect; inconclusive means small, poorly fitted or top-dose-only effect; inactive means no such curve, though single readings can be large or run the other way.
Classes used: active, inactive

molecule: O=C(C=Cc1ccc(CN(CCO)CCc2c[nH]c3ccccc23)cc1)NO
class.name: active
--
molecule: CCN(C(=O)c1c(O)c2c(Cl)cccc2n(C)c1=O)c1ccccc1
class.name: inactive
--
molecule: C#C[C@]1(O)CC[C@@H]2[C@@H]3CCC4=CC(=O)CC[C@@H]4[C@H]3CC[C@@]21CC
class.name: inactive
--
molecule: Nc1ncn([C@@H]2O[C@H](CO)[C@@H](O)[C@@H]2O)c(=O)n1
class.name: active
--
molecule: CC[C@H](CC[C@@H](C)[C@H]1CC[C@H]2[C@@H]3CC=C4C[C@@H](O)CC[C@]4(C)[C@@H]3CC[C@]12C)C(C)C
class.name: inactive
--
molecule: CN[C@@H]1C[C@H]2O[C@@](C)([C@H]1OC)n1c3ccccc3c3c4c(c5c6ccccc6n2c5c31)C(=O)N[C@H]4O
class.name: active
--
molecule: C[C@@H](Oc1ccc2[nH]nc(C=Cc3cnn(CCO)c3)c2c1)c1c(Cl)cncc1Cl
class.name: active
--
molecule: C=C[C@@H]1CN2CCC1C[C@H]2[C@H](O)c1ccnc2ccc(OC)cc12 (stereo partly drawn)
class.name: inactive

###

# measurement.protocol: qHTS of pediatric cancer cell lines to identify multiple opportunities for drug repurposing: Primary screen for RD cells (AID 1347104); further: nearly all actives have a fitted effect of over 55% in size
# assay.setup: RD rhabdomyosarcoma viability, CellTiter-Glo luminescence, 48 h; series mostly up to 46 µM
Inconclusive results are not listed. The source made the active and inactive calls. Calls come from the whole dose curve; as a rule, active = well fitted cell-killing curve with a large enough effect; inconclusive = small, poorly fitted or top-dose-only effect; inactive = flat fitted curve, though single readings scatter. Positions of bridges follow the written chain, without caps; N, C: chain ends. Non-standard residues stand in square brackets, D forms with d. Residues, ends and D or L forms follow the SMILES beside them. ξ: configuration not given here. *: point of attachment. Octanoyl(6-Me) = CCC(C)CCCCC(=O)*; ξThr(3R) = C[C@@H](O)C(N)C(=O)O; dDab = NCC[C@@H](N)C(=O)O; Dab = NCC[C@H](N)C(=O)O
Outcomes: t (active), f (inactive)

molecule: O=C(O)C(=O)Nc1cccc(C2=NN=N[N]2)c1
class.name: f
--
molecule: CC(N[C@H]1CCCC[C@H]1NC(=O)c1ccc(Cl)cc1)c1cccc2ccccc12 (some centres undefined)
class.name: t
--
molecule: c1coc(CNc2ncnc3nc[nH]c23)c1
class.name: f
--
molecule: COc1ccc(Nc2cc(-c3cnc(N)nc3)nc(N3CCOCC3)n2)cn1
class.name: t
--
molecule: NC(=O)Nc1sc(-c2ccc(F)cc2)cc1C(N)=O
class.name: t
--
molecule: CC(C)NC[C@@H](C(=O)N1CCN(c2ncnc3c2[C@H](C)C[C@H]3O)CC1)c1ccc(Cl)cc1
class.name: t
--
molecule: CCC(C)CCCCC(=O)N[C@@H](CCN)C(=O)NC(C(=O)N[C@H](CCN)C(=O)N[C@@H]1CCNC(=O)C([C@@H](C)O)NC(=O)[C@@H](CCN)NC(=O)[C@@H](CCN)NC(=O)[C@@H](CC(C)C)NC(=O)[C@H](Cc2ccccc2)NC(=O)[C@H](CCN)NC1=O)[C@@H](C)O (stereo partly drawn) ({Octanoyl(6-Me)}-[Dab][ξThr(3R)][dDab][dDab][Dab]F[dL][dDab][dDab][ξThr(3R)]; lactam 4-C)
class.name: f
--
molecule: CC(C)C[C@H](NC(=O)[C@@H](NC(=O)c1cccc(-c2ccccc2)n1)[C@@H](C)O)B(O)O
class.name: t
--
molecule: C=C[C@@H]1CN2CCC1C[C@H]2[C@H](O)c1ccnc2ccc(OC)cc12 (some centres undefined)
class.name: f

###

# measurement.protocol: qHTS of pediatric cancer cell lines to identify multiple opportunities for drug repurposing: Primary screen for Rh18 cells (AID 1347102); further: nearly all actives have a fitted effect of over 65% in size
# assay.setup: Rh18 rhabdomyosarcoma viability, CellTiter-Glo luminescence, 48 h; series mostly up to 46 µM
Results filed as inconclusive are left out. The source made the active and inactive calls. Calls come from the whole dose curve; as a rule, active = well fitted cell-killing curve with a large enough effect; inconclusive = small, poorly fitted or top-dose-only effect; inactive = flat fitted curve, though single readings scatter.
Labels: active, inactive

compound: NC(=NCCCCCCN=C(N)N=C(N)Nc1ccc(Cl)cc1)N=C(N)Nc1ccc(Cl)cc1
class.name: active
//
compound: Cn1cc(C[C@@H](N)C(=O)O)c2ccccc21
class.name: inactive
//
compound: CC(C)c1cc(C(C)C)c(CC(=O)NS(=O)(=O)Oc2c(C(C)C)cccc2C(C)C)c(C(C)C)c1
class.name: inactive
//
compound: CC(C(C)N1CC(=O)NC(=O)C1)N1CC(=O)NC(=O)C1 (stereo not drawn)
class.name: inactive
//
compound: OCC(O)C(O)C(O)CO (stereo not drawn)
class.name: inactive
//
compound: CON=C(C(=O)N[C@@H]1C(=O)N2C(C(=O)O)=C(CSC(=O)c3ccco3)CS[C@H]12)c1csc(N)n1
class.name: inactive
//
compound: C=C[C@@H]1CN2CCC1C[C@H]2[C@H](O)c1ccnc2ccc(OC)cc12 (stereo partly drawn)
class.name: inactive
//
compound: CCCCCCCCCCCCc1ccc(S(=O)(=O)Nc2nncs2)cc1
class.name: inactive
//
compound: C[C@@]12C(=O)OC(=O)[C@@]1(C)C1CCC2O1
class.name: active
//
compound: CCOC(=O)[C@@H](N)Cc1ccc(-c2cc(O[C@H](c3ccc(Cl)cc3-n3ccc(C)n3)C(F)(F)F)nc(N)n2)cc1
class.name: active
//
compound: O=C(C[C@@H]1CC=CCCC(=O)O[C@H](c2ccccc2)CNC1=O)NCc1ccc(Cl)cc1
class.name: inactive
//
compound: CCOC(=O)[C@H](CCc1ccccc1)N[C@@H](C)C(=O)N1[C@@H](C(=O)O)C[C@H]2CCC[C@@H]21
class.name: active
//
compound: O=C(O)CCCCCC(=O)NN=C1CCCC1
class.name: inactive
//
compound: CCOC(=O)C1=C(C)NC(=S)NC1c1cccc(O)c1 (stereo not drawn)
class.name: inactive
//
compound: c1ccc2c(Oc3nc(Nc4ccc(N5CCOCC5)cc4)c4ncn(C5CCCCC5)c4n3)cccc2c1
class.name: inactive
//
compound: NC(=O)Nc1sc(-c2ccc(F)cc2)cc1C(N)=O
class.name: active
//
compound: CN(C)c1ccc(C(=O)NCCCCCCC(=O)NO)cc1
class.name: active
//
compound: C=C1C[C@@]2(O)O[C@@]3(C[C@H]2C(C)C)[C@H](C)CC[C@H]13
class.name: inactive
//
compound: CCc1ccc(C(=O)Nc2cc(CN3CCN(C)CC3)cc(C(F)(F)F)c2)cc1C#Cc1cnc2ccnn2c1
class.name: active
//
compound: O=c1ccn([C@@H]2O[C@H](CO)[C@H](O)[C@@H]2F)c(=O)[nH]1
class.name: inactive
//
compound: O=C1c2cccc(O)c2C(=O)c2c(O)cc(CO)cc21
class.name: inactive
//
compound: COc1cc(OC)cc(-c2ccc3ncc4ccc(=O)n(-c5ccc(N6CCNCC6)c(C(F)(F)F)c5)c4c3c2)c1
class.name: active
//
compound: CC(=O)C1=C(O)C=C2Oc3c(C(C)=O)c(O)c(C)c(O)c3C2(C)C1=O (stereo not drawn)
class.name: inactive

###

# measurement.protocol: Quantitative High-Throughput drug screen in 47 multiple myeloma cell lines against the NCATS MIPE library collection: MOLP8_DSMZ cell viability assay (AID 1918977); further: nearly all actives have a fitted effect of over 45% in size
# assay.setup: MOLP8 myeloma viability, CellTiter-Glo ATP luminescence, 48 h; series mostly up to 45.8 µM
Inconclusive results are not listed. The source made the active and inactive calls. Calls follow the shape of the dose curve; as a rule, active = well fitted cell-killing curve with a large enough effect; inconclusive = small, poorly fitted or top-dose-only effect, or effect the other way; inactive = no such curve, though single readings can be large or run the other way.
Labels: label 1 for active, label 0 for inactive

compound: COc1cc(O)c2c(c1)C1OC1C[C@H](O)[C@H](O)C(=O)C=CC[C@H](C)OC2=O (stereo partly specified)
class.name: label 1
//
compound: Cc1ccc([N+](=O)[O-])cc1S(=O)(=O)N(C)N=Cc1cnc2ccc(Br)cn12
class.name: label 1
//
compound: COc1cc(OC)cc(-c2ccc3ncc4ccc(=O)n(-c5ccc(N6CCNCC6)c(C(F)(F)F)c5)c4c3c2)c1
class.name: label 1
//
compound: c1cc(N[C@@H]2CCNC2)nc(-c2cnc3ccc(-c4cn[nH]c4)cn23)c1
class.name: label 1
//
compound: Cc1cnc(Nc2ccc(N3CCN(C)CC3)cc2)nc1Nc1cccc(S(=O)(=O)NC(C)(C)C)c1
class.name: label 1
//
compound: CN(N=O)C(=O)N[C@H]1C(O)OC(CO)[C@@H](O)[C@H]1O (stereo partly specified)
class.name: label 0
//
compound: CC(=O)O[C@H]1C[C@@H]2CC[C@H]3[C@H]4C[C@H]([N+]5(C)CCCCC5)[C@@H](OC(C)=O)[C@@]4(C)CC[C@@H]3[C@@]2(C)C[C@H]1[N+]1(C)CCCCC1
class.name: label 0
//
compound: CC(C)C[C@H](NC(=O)CNC(=O)c1cc(Cl)ccc1Cl)B1OC(=O)CC(CC(=O)O)(C(=O)O)O1 (stereo partly specified)
class.name: label 1
//
compound: C=CCNC1=C2C[C@@H](C)C[C@H](OC)[C@@H](O)[C@@H](C)C=C(C)[C@H](OC(N)=O)[C@@H](OC)C=CC=C(C)C(=O)NC(=CC1=O)C2=O
class.name: label 1
//
compound: COc1cccc2c1C(=O)c1c(O)c3c(c(O)c1C2=O)C[C@@](O)(C(=O)CO)C[C@@H]3O[C@H]1C[C@H](N)[C@@H](O)[C@H](C)O1
class.name: label 1
//
compound: Cc1noc(-c2ccc(CSCCC(=O)O)cc2)c1NC(=O)OC(C)c1ccccc1Cl (stereo unspecified)
class.name: label 0

Every entry's value here was drawn from PubChem BioAssay (NCATS).
